Assay: gradient 5% acetonitrile 3 min, to 50% in 2 min, to 85% in 15 min, held 3 min, 100 µL/min
Settings: column: Zorbax Extend-C18 2.1 x 50 mm; eluents: water / acetonitrile, 0.1% formic acid

COMPOUND: CCN1CCN(CCCNC(=O)c2cc(-c3cccnc3)nc3ccc(Br)cc23)CC1
RP-LC retention time, s: 581
//
COMPOUND: Cc1oc(-c2[nH]ncc2C(=O)N2CCCC2)cc1S(=O)(=O)N1CCOCC1
RP-LC retention time, s: 619
//
COMPOUND: COc1ccc(C(C)(C)C)cc1S(=O)(=O)Nc1ccc(-c2cn3ccc(C)nc3n2)cc1
RP-LC retention time, s: 758
//
COMPOUND: O=S(=O)(c1cc(-c2nnc(C3CC3)o2)co1)N1CCC(Cc2ccccc2)CC1
RP-LC retention time, s: 1080
//
COMPOUND: O=C(Cn1nc2c3ccccc3ncn2c1=O)Nc1ccc(F)cc1F
RP-LC retention time, s: 668
//
COMPOUND: COC(=O)C1=CN(c2ccc(C)c(F)c2)c2cc(F)ccc2S1(=O)=O
RP-LC retention time, s: 920
//
COMPOUND: CCOC(=O)c1[nH]c(C)c(CCC(=O)N2CCC(C(=O)NC(C)C)CC2)c1C
RP-LC retention time, s: 683
//
COMPOUND: C=CCNC(=O)c1cnn(-c2cc(-c3nc(C4CC4)no3)ccn2)c1C
RP-LC retention time, s: 895
//
COMPOUND: Cc1cc([N+](=O)[O-])nn1CC(=O)Nc1c(F)cc(F)cc1Br
RP-LC retention time, s: 762
//
COMPOUND: CCc1nncn1C1CCN(S(=O)(=O)c2ccc(F)c(C)c2)CC1
RP-LC retention time, s: 715
//
COMPOUND: O=C(c1cccs1)N1CCc2c([nH]c3ccccc23)C1c1ccc(F)cc1 (centres undefined)
RP-LC retention time, s: 1150
//
COMPOUND: O=C(C1=CN(c2ccc(F)cc2)c2cc(F)ccc2S1(=O)=O)N1CCCCC1
RP-LC retention time, s: 858
//
COMPOUND: O=C(CCn1c(=O)sc2ccccc21)Nc1nc(-c2ccccc2)cs1
RP-LC retention time, s: 1010
//
COMPOUND: Cc1nc2ccccc2n(CCC(=O)NCCc2c[nH]c3ccc(Cl)cc23)c1=O
RP-LC retention time, s: 795
//
COMPOUND: COc1ccc(CNC(=O)Cn2ccc3ccc(-c4nnc(C)o4)cc32)cc1
RP-LC retention time, s: 1080
//
COMPOUND: COc1ccc(NC(=O)Cn2c(N3CCCCC3)nc(C)cc2=O)cc1F
RP-LC retention time, s: 717
//
COMPOUND: Cc1cc(C)cc(Nc2c(-c3ccc(N4CCOCC4)cc3)nc3ncccn23)c1
RP-LC retention time, s: 719
//
COMPOUND: Cc1ccc(-c2csc(NC(=O)CSc3nc4c(cc3C#N)C(=O)CCC4)n2)cc1
RP-LC retention time, s: 583
//
COMPOUND: CC(C)c1cc(C(=O)Nc2cccc(C#N)c2)nc2ccnn12
RP-LC retention time, s: 1030
//
COMPOUND: CCOC(=O)Cc1ccc(NC(=O)N2CCCC2c2c(C)noc2C)cc1 (centres undefined)
RP-LC retention time, s: 775
//
COMPOUND: Cc1ccccc1-c1nc(-c2ccc3c(c2)nnn3C)no1
RP-LC retention time, s: 1050
//
COMPOUND: N#Cc1cccc(NC(=O)Cn2cnc3nc4c(cc3c2=O)CCCC4)c1
RP-LC retention time, s: 700
//
COMPOUND: COc1cccc(S(=O)(=O)N2CCC(c3cc(N)on3)CC2)c1
RP-LC retention time, s: 756
//
COMPOUND: COc1ccc(N2CC(C(=O)Nc3cc(C)nn3C3CCS(=O)(=O)C3)CC2=O)cc1 (centres undefined)
RP-LC retention time, s: 638
//
COMPOUND: Cn1c(=O)sc2cc(S(=O)(=O)N3CCC(C(=O)N4CCc5ccccc54)CC3)ccc21
RP-LC retention time, s: 933
//
COMPOUND: COc1ccc(OC)c(NC(=O)C2CCCN(c3cnc4nccnc4c3)C2)c1 (centres undefined)
RP-LC retention time, s: 730
//
COMPOUND: O=C(Nc1cccc(Cl)c1)Nc1ccc2nc3n(c(=O)c2c1)CCC3
RP-LC retention time, s: 736
//
COMPOUND: COc1cccc(NS(=O)(=O)c2cc(-c3cc(C(F)(F)F)on3)sc2C)c1
RP-LC retention time, s: 1110
//
COMPOUND: COc1ccc(Cn2c(=O)n(C)c3ncncc32)cc1F
RP-LC retention time, s: 683
//
COMPOUND: O=C(Cc1cccs1)N1CCN(Cc2nc(-c3ccc(Cl)cc3)cs2)CC1
RP-LC retention time, s: 754
//
COMPOUND: O=C(Nc1ccc(N2CCN(C3CCCC3)C2=O)nc1)c1cc(F)cc(F)c1
RP-LC retention time, s: 917
//
COMPOUND: COc1ccc(-c2csc3ncnc(NCCN4CCOCC4)c23)cc1
RP-LC retention time, s: 569
//
COMPOUND: CC(C)Sc1ccc(CC(=O)N2CC(c3nc(-c4ncccn4)no3)C2)cc1
RP-LC retention time, s: 732
//
COMPOUND: O=C(C1CCN(c2ccc(-c3cccs3)nn2)CC1)N1CCN(c2ccccn2)CC1
RP-LC retention time, s: 568
//
COMPOUND: Cc1cccc(NC(=O)Cn2nc(N3CCCC(C)C3)c3ccccc3c2=O)c1C (centres undefined)
RP-LC retention time, s: 1120
//
COMPOUND: CCN1C(=O)COc2ccc(-c3csc(NC(=O)c4ccccc4)n3)cc21
RP-LC retention time, s: 952
//
COMPOUND: COCCOC1CCC12CCN(S(=O)(=O)c1ccccc1C)CC2 (centres undefined)
RP-LC retention time, s: 983
//
COMPOUND: CN(C)C(=O)c1n[nH]c2c1CN(C(=O)c1cccc(Br)c1)CC2
RP-LC retention time, s: 654
//
COMPOUND: CCc1nc2c(c(=O)n1CC(=O)Nc1ccc(C(C)C)cc1)CN(Cc1ccccc1)CC2
RP-LC retention time, s: 753
